Attribute: growth inhibition
- procedure.summary: NCI Yeast Anticancer Drug Screen. Data for the sgs1 mgt1 strain (AID 161);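 also: 0% = growth of cultures given vehicle only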
- measurement.setup: S. cerevisiae sgs1 mgt1 strain, at 50.0 µM, stronger effect = higher value
Compounds without any hit were thinned out: in the full panel of roughly 79,000, 15% have a hit.
# value in %; strip the unit string

compound	test.value
CCCCOC(=O)c1ccc(OCCCC)cc1	16.6
CCCCNc1c(C(=O)N2CCCCC2)cnc2c1cnn2CC	26.2
NNC(=O)CC(N)C(N)=O (stereo not drawn)	-3.25
Nc1nc(NCCCc2ccccc2)c(N)c(=O)[nH]1	6.55
O=C(c1ccccc1)c1ccccc1C(=O)c1ccccc1	54
O=C(O)C1C2C=CC(O2)C1C(=O)Nn1cccc1 (stereo not drawn)	-17.6
CCCNC(=O)Nc1ccccc1OCC	-8.6
N#CC1(C#N)C(c2ccccc2)C=CC12OCCCO2 (stereo not drawn)	3.9

In: Which growth inhibition is listed for O=c1[nH]c(=O)n(C2OC(COP(=O)(O)OP(=O)(O)O)C(O)C2O)cc1F (stereo not drawn) ?
Out: -11.4

In: Which growth inhibition is listed for O=C(Nc1ccc(F)cc1)c1ccc(Cl)cc1Cl ?
Out: -9

In: Which growth inhibition is listed for CC(=O)OC1CC(OC(C)=O)C(OC(C)=O)C(C)O1 (stereo not drawn) ?
Out: 4.7

In: Which growth inhibition is listed for C/C(=N/NS(=O)(=O)c1ccc(N)cc1)c1ccccc1 ?
Out: 1.45

In: Which growth inhibition is listed for CCCCNC(=S)C(=S)NCCCC ?
Out: 0.05

* * *

- procedure.summary: NCI Yeast Anticancer Drug Screen. Data for the bub3 strain (AID 167)
- measurement.setup: S. cerevisiae bub3 mutant strain, at 50.0 µM, stronger effect = higher value
The panel holds about 79,000 compounds, 15% with a hit somewhere; the sample as a whole holds those more often.
measured.parameter: growth inhibition (%)
# value in %; strip the unit string

Below, 5 molecules whose answers are already recorded.
molecule	test.value
[O-][N+](=Nc1ccc(Sc2ccccc2)cc1)c1ccc(Sc2ccccc2)cc1	21.9
NC(=O)NC12CC3CC(CC(C3)C1)C2	4.9
CCCCOC(=O)c1cccc2c1-c1ccccc1C2=O	13.8
O=[N+]([O-])c1ccc(SC2=NCCCN2)c(Cl)c1	32.6
C/C=C(\C(=C\C)c1ccc(OC(=O)c2ccccc2)c(C2CCCCC2)c1)c1ccc(O)c(C2CCCCC2)c1	2.95

In: Which growth inhibition is listed for Cc1nccc2cccc(CNC(C)C)c12 ?
Out: -11.2

In: Which growth inhibition is listed for [Cl-].[Dy+3].[O-]/N=C(\c1ccccc1)c1ccccn1.[O-]/N=C(\c1ccccc1)c1ccccn1.[O-]/N=C(\c1ccccc1)c1ccccn1 ?
Out: 19.4

In: Which growth inhibition is listed for CCNC(=O)NS(=O)(=O)c1ccc(Sc2ccc(Cl)cc2)nc1 ?
Out: -0.55

In: Which growth inhibition is listed for C/C=C/C=C/C(=O)CCC1(C)OC(=O)C(C)=C1O (configuration not stated) ?
Out: -3.45

* * *

- procedure.summary: NCI Yeast Anticancer Drug Screen. Data for the bub3 strain (AID 167)
- measurement.setup: S. cerevisiae bub3 mutant strain, at 50.0 µM
Compounds without any hit were thinned out: in the full panel of roughly 79,000, 15% have a hit. Active and inactive are the calls of the source. Cut-off read from the data, not from the text of the source: active = growth inhibition above about 70%; inactive = the rest.
Response enum: active, inactive

compound	assigned.category
CC(O)C(O)C(O)C1OC1=O (centres undefined)	inactive
CCCCN(C=O)CCCC	inactive
COC(=O)c1cc(NC(=O)Nc2ccc(Cl)cc2[N+](=O)[O-])cc(C(=O)OC)c1	inactive
O=C1c2ccccc2C(=O)c2c1ccc1c2[nH]c2ccccc21	inactive
O=C1/C(=C/c2cccs2)CCc2ccccc21	inactive

In: State the result this test recorded for N[C@H]1c2c(Cl)cccc2C(=O)[C@H]1O .
Out: inactive

In: State the result this test recorded for N=C1N=Nc2nc(CC(=O)c3ccc(Cl)cc3Cl)c(O)n21 .
Out: inactive

In: State the result this test recorded for CCOC(CN(C(C)C)C(C)C)OCC .
Out: inactive

In: State the result this test recorded for O=S(O)CCCCCSSCCCCSSCCCCCS(=O)O .
Out: inactive

In: State the result this test recorded for O=c1ccn(C2OC(C(O)CO)C(O)C2O)c(=O)[nH]1 (centres undefined) .
Out: inactive
